# Species: Rattus norvegicus
# ASSAY_EXPLANATION: Open TG-GATES - Regimen: Daily Repeat
# Format: toxicity, organism-based, Sprague-Dawley
# Parameters: regimen Daily Repeat, gender Male, age 6 weeks
# CONDITION_PARAMETERS: in vivo, po, 0 mg/kg, […], tissue Plasma, route gavage, dose level Control, time 14 day
ENDPOINT_LABEL: Ca (mg/dL)
Return type: number; implicit unit mg/dL.

IN: // query Ca value for entry CC(S)C(=O)NCC(=O)O (stereo not given) [TIOPRONIN]
OUT: 10.3

###

# Species: Rattus norvegicus
# ASSAY_EXPLANATION: Open TG-GATES - Regimen: Single
# Assay type: toxicity, organism-based, Sprague-Dawley
# Design: regimen Single, gender Male, age 6 weeks
# CONDITION_PARAMETERS: in vivo, po, 0 mg/kg, 24 h, tissue Plasma, route gavage, dose level Control
ENDPOINT_LABEL: LDH

                            compound_smiles  endpoint_label  value_reported
0  CC(=O)[C@@]1(O)CC[C@H]2[C@@H]3C=C(Cl)C4=CC(=O)CC[C@]4(C)[C@H]3CC[C@@]21C             LDH        219 IU/L

IN: // query LDH value for entry `COc1ccc([C@@H]2Sc3ccccc3N(CCN(C)C)C(=O)[C@@H]2OC(C)=O)cc1`
OUT: 88.4 IU/L

IN: // query LDH value for entry `CN(C)CCCN1c2ccccc2Sc2ccc(Cl)cc21`
OUT: 192.2 IU/L

###

# Organism: Rattus norvegicus
# ASSAY_EXPLANATION: Open TG-GATES - Regimen: Daily Repeat
# Format: toxicity, organism-based, Sprague-Dawley
# Set-up: regimen Daily Repeat, gender Male, age 6 weeks
# CONDITION_PARAMETERS: in vivo, po, 1000 mg/kg, […], tissue Plasma, route gavage, dose level High, time 14 day
Readings of TC for the listed compounds
Return type: number; implicit unit mg/dL.

Take a look at these entries with their results.
>>> print(df.to_string())
                                   compound  output_unit  value_reported
0                   O=C(O)c1ccccc1Nc1ccccc1        mg/dL              65
1  CC(=O)[C@@]1(O)CC[C@H]2[C@@H]3C=C(Cl)C4=CC(=O)CC[C@]4(C)[C@H]3CC[C@@]21C        mg/dL            81.2
2    CC(S)C(=O)NCC(=O)O (centres undefined)        mg/dL              60

IN: // query TC value for entry CCCCNC(=O)NS(=O)(=O)c1ccc(C)cc1 [TOLBUTAMIDE]
OUT: 72

###

Readings of Neu for the listed molecules
# Species: Rattus norvegicus
# ASSAY_EXPLANATION: Open TG-GATES - Regimen: Daily Repeat
# Type: toxicity, organism-based, Sprague-Dawley
# Design: regimen Daily Repeat, gender Male, age 6 weeks
# CONDITION_PARAMETERS: in vivo, po, 0 mg/kg, […], tissue Blood, route gavage, dose level Control, time 7 day
Return type: number; implicit unit %.

                                   molecule  value_reported
0  NS(=O)(=O)c1cc(C(=O)O)c(NCc2ccco2)cc1Cl [FUROSEMIDE]            14.8
1                   O=C(O)c1ccccc1Nc1ccccc1            15.6
2     CCCCC1C(=O)N(c2ccccc2)N(c2ccccc2)C1=O             8.8
3  CC(S)C(=O)NCC(=O)O (configuration not stated)            13.4
4                          O=c1ccc2ccccc2o1            11.8
5                   Nc1ccc(Cc2ccc(N)cc2)cc1            20.4

Read the next record carefully.
IN: // query Neu value for entry `CN(C/C=C/C#CC(C)(C)C)Cc1cccc2ccccc12`
OUT: 15.6
